Listed here: items and their measured mGlu1 pIC50 (± SEM).
Target: rat mGlu1 (Rattus norvegicus)
Sequence (P23385 19-1199): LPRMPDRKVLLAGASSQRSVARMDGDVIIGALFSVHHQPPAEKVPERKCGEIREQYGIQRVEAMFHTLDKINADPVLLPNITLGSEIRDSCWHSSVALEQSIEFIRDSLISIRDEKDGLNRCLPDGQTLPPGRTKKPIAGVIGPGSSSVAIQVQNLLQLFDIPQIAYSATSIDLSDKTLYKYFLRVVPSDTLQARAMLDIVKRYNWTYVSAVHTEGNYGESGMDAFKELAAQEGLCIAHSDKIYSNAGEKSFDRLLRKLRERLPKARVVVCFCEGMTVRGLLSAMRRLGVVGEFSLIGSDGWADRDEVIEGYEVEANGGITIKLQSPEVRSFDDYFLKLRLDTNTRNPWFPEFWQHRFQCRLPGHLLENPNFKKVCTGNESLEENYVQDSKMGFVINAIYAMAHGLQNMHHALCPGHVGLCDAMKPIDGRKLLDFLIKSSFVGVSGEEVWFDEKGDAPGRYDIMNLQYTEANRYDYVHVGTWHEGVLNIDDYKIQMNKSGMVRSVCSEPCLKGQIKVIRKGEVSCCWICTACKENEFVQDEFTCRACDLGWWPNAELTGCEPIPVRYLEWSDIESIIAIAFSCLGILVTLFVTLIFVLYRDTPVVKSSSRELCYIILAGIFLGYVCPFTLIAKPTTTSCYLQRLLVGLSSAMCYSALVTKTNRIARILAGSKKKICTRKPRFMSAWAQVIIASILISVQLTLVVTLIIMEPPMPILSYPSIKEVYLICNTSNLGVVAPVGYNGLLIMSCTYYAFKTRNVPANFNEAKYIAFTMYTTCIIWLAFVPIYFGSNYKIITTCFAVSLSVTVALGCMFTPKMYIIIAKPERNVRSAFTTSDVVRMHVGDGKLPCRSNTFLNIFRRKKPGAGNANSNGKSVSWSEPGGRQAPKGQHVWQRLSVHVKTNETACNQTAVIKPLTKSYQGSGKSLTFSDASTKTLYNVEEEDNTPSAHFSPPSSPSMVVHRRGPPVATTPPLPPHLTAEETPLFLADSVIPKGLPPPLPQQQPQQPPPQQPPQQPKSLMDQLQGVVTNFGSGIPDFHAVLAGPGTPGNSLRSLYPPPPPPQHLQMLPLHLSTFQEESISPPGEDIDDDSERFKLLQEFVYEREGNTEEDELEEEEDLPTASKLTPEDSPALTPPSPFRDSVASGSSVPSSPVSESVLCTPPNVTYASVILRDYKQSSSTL
Test: rat mGlu1 calcium mobilization assay
Format: cell-based
Conditions: Calcium mobilization assay; rat mGlu1; NAM

Check out these entries, answers already filled in.
In [3]: df
Out[3]:
                                 smilescode  valuereported
0  CN(C)c1nc(N[C@H]2CC[C@H](C)CC2)c2nn3ccccc3c2n1          < 4.5
1  CC(C)Nc1nc(N[C@H]2CC[C@H](C)CC2)c2nn3ccccc3c2n1          < 4.5
2  CNc1nc(N[C@H]2CC[C@H](C)CC2)c2nn3ccccc3c2n1          < 4.5

Now consider a different compound.
Return reported mGlu1 pIC50 (± SEM) for target or system rat mGlu1 (Rattus norvegicus), item C[C@H](Nc1ncnc2c1nn1ccccc21)C1CC1 .
< 4.5

Values compiled from paper PMC4824313.
